These measurements were taken from PubChem BioAssay AID1159580.

Test: chemical genetic growth profiling, strain panel (AID 1159580);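 note: tested at 20 µM; growth read once vehicle control cultures reached saturation at 30 °C; 1 = growth at the plate median or of vehicle wells; lower values mean less growth of the strain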
Conditions: S. cerevisiae deletion strains, growth OD, locus YBR135W, strain CKS1, hits give low values
Hit rate of the full screen: of about 5,500 compounds, about 2,000 (36%) were called active. Roughly 18% stayed inconclusive and do not appear here. The list shows a part of the results.
MEASUREMENT KIND: normalized growth
Give bare numbers.

Below, 4 compounds whose answers are already recorded.
> print(dat)
                                   compound   measurement.kind  meas.value
1  O=S(=O)(N/N=C\c1ccc(Cl)cc1)c1ccc(-c2ccccn2)s1  normalized growth        0.98
2  OC(CNCc1ccc(Cl)cc1)CO/N=C\C1=C(Cl)c2cc(Cl)ccc2OC1 (stereo not given)  normalized growth       0.981
3  CC(C)c1ccc(NCC(O)CSc2ccccc2)cc1 (stereo not given)  normalized growth       0.952
4  FC(F)(F)c1cccc(NC(=S)Nc2csc(C(F)(F)F)c2-c2ccccc2)c1  normalized growth       0.995

Query: Provide normalized growth value for the following compound: O=C(Nc1ccc(C(F)(F)F)cc1)N1CCN(c2ccnc3cc(Cl)ccc23)CC1
Response: 0.987

* * *

Assay: chemical genetic growth profiling, strain panel (AID 1159580);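 note: tested at 20 µM; growth read once vehicle control cultures reached saturation at 30 °C; 1 = growth at the plate median or of vehicle wells; lower values mean less growth of the strain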
Conditions: S. cerevisiae deletion strains, growth OD, locus YJL154C, strain vps35, hits give low values
Out of some 5,500 compounds screened, about 2,000 (36%) were called active. Inconclusive results (about 18%) are left out. The list shows a part of the results.
Exercise: for every item that follows, state its recorded normalized growth.
Give bare numbers.

Below, 2 molecules whose answers are already recorded.
MOLECULE	MEAS VALUE
Cc1ccc2c(Cl)cc(Cl)c(O)c2n1	1.02
CC/C(=C(\c1ccccc1)c1ccc(OCCN(C)C)cc1)c1ccccc1	0.078

Batch lookup, normalized growth per entry.
1. CCN(CC)CCOc1ccc2c(c1)C(=O)c1cc(OCCN(CC)CC)ccc1-2
2. CC(C)NCC(O)c1ccc(O)c(O)c1 (stereo unspecified)

Response:
1. 0.979
2. 0.995

* * *

Test: chemical genetic growth profiling, strain panel (AID 1159580);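 note: tested at 20 µM; growth read once vehicle control cultures reached saturation at 30 °C; 1 = growth at the plate median or of vehicle wells; lower values mean less growth of the strain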
Conditions: S. cerevisiae deletion strains, growth OD, locus YNL233W, strain BNI4
Screen size: about 5,500 compounds; about 2,000 (36%) were called active. Roughly 18% stayed inconclusive and do not appear here. Cut-off read from the data, not from the text of the source: active = normalized growth mostly below about 0.91 (no sharp cut-off); inconclusive = no clear call, values can overlap the other calls; inactive = mostly above about 0.92. The list shows a part of the results.
Choose one outcome from this list and give only that: yes (1) = active, no (0) = inactive

Past entries and their recorded results:
> print(dat)
                                   compound    class
1           C[C@H](N)[C@H](O)c1ccc(O)c(O)c1   no (0)
2        Cc1ccc(/C(=C\CN2CCCC2)c2ccccn2)cc1   no (0)
3  CC(Cc1ccc(O)c(O)c1)C(C)Cc1ccc(O)c(O)c1 (stereo unspecified)  yes (1)
4  CC1(C)C(O)CC(O)C2(C)C1CC(=O)C1(C)C2CCC2(C)C(C(=O)O)OC(=O)C3OC321 (stereo unspecified)   no (0)
5                COc1c2c(cc3c1OCO3)CCN(C)C2   no (0)

Next item in the queue.
Query: What is the recorded call for this compound in the test? C[n+]1cccc(C(=O)[O-])c1
Response: no (0)

* * *

Assay: chemical genetic growth profiling, strain panel (AID 1159580);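 note: tested at 20 µM; growth read once vehicle control cultures reached saturation at 30 °C; 1 = growth at the plate median or of vehicle wells; lower values mean less growth of the strain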
Conditions: S. cerevisiae deletion strains, growth OD, locus YOL012C, strain htz1
About 2,000 (36%) of roughly 5,500 compounds were called active. Inconclusive results (about 18%) are left out. Cut-off read from the data, not from the text of the source: active = normalized growth mostly below about 0.91 (no sharp cut-off); inconclusive = no clear call, values can overlap the other calls; inactive = mostly above about 0.92. This is one part of the list.
Choose one outcome from this list and give only that: Y = active, N = inactive

Past entries and their recorded results:
COMPOUND	CLASS
CS(=O)(=O)CCCCN=C=S	N
COC(C)(C)CCC[C@H](C)C/C=C/C(C)=C/C(=O)OC(C)C	N

Next item in the queue.
Query: What is the recorded call for this compound in the test? C=C(C)[C@H]1CC=C(C(=O)O)CC1
Response: N
